- Test system: Trypanosoma brucei
- experimentDescription: Trypanosoma brucei 72 hour study
- Assay type: functional, organism-based
- Set-up: scale not given: in the data most compounds retested in dose-response had high values
- testConditions: 30.3 µM; […]
The campaign covered roughly 66,000 compounds. About 960 (1.5%) showed an effect of 50% or more. For the sample, strong results were picked, then their nearest neighbours and some compounds at random.
Hi, to clarify the labels: 1 covers Percent Effect from 20% upward, -1 covers anything below 20%.

CN(C)CCN1C(=O)CCC12CCCN(C(=O)C1CC=CC1)CC2.O=C(O)C(F)(F)F (centres undefined) ... -1

Is the recorded value of Percent Effect equal to or greater than 20% for this compound? CC(=O)N1N=C(c2ccco2)OC1C(=O)N(CC(C)C)CC(C)C (centres undefined) 1

Kindly determine if Percent Effect recorded for CC(C)(C)c1cc(NC(=O)CN2CCc3cncnc3C2)on1 is above or exactly 20%. -1

State whether the measured Percent Effect reaches 20%, counting equality as reaching it, for Cc1cnc(NC(=O)c2ccc(C3CCCN3CC(C)C)s2)s1 (centres undefined) -1

Assess whether reported Percent Effect for C/C(=C\c1ccccc1)CN1CCCC(c2nnc3n2CCNCC3)C1.Cl (centres undefined) sits at 20% or higher. -1

Confirm if Percent Effect reported for the compound Cc1cc(C)n(-c2ccc(CNCc3ccc(C)o3)cn2)n1 is 20% or above. -1

Does the compound Cc1cc(C)n(-c2ccc(CNCc3ccc(F)c(F)c3)cn2)n1 have recorded Percent Effect that is 20% or more? 1

Given the entry CC(=O)N1N=C(c2ccco2)OC1C(=O)NCC(C)C (centres undefined) , answer whether its Percent Effect meets or surpasses 20%. -1

Check this compound for Percent Effect at or above 20%: O=C(O)C(F)(F)F.O=C(O)C(F)(F)F.O=C(O)C(F)(F)F.O=C(O)C(F)(F)F.c1ccc(CN2CCc3c(COCc4ccncc4)cncc3C2)nc1 -1

Is reported Percent Effect greater than or equal to 20% here: Cc1nccc(-c2cccc(NCC(=O)N3CCNC(=O)C3)c2)n1 -1

Textbook exercise: given the entry CC(C)CC(=O)N1CC(=O)c2sc(Nc3ccc(F)cc3)nc2C1 , state whether its Percent Effect is greater than or equal to 20%. -1

Does the reported Percent Effect for Cc1cc(C)nc(N2CCc3ccc(OC(F)F)cc3C2)n1 fall at or above the 20% mark? 1

Evaluate Fc1ccc(-c2nccnc2C2CCCNC2)cc1 (centres undefined) : Percent Effect at minimum 20%? -1

Data origin: ChEMBL document CHEMBL3988442
